# Test system: SK-MEL-28 melanoma
# experimentNotes: NCI tumour cell line growth inhibition, 48 h; in the data active = GI50 below about 0.43 µM; inactive = the rest
Possible outcomes: true for active, false for inactive

{"molecule": "Cc1cn2c(/C=C3/C(=O)Nc4ccc(O)cc43)c(C)nc2s1", "categoryLabel": "false"}
{"molecule": "CC(C)(c1ccccc1)c1ccc(Oc2ccc(C#N)c(C#N)c2)cc1", "categoryLabel": "false"}
{"molecule": "COc1ccc(C2=C(c3ccc(OC)c(OC)c3)C(=O)N3CCCC3C2)cc1 (stereo not given)", "categoryLabel": "false"}
{"molecule": "O=C(Nc1ccc(Oc2cccc(F)c2)c(Cl)c1)c1cnccn1", "categoryLabel": "false"}
{"molecule": "O=C1NOC(c2ccc(O)cc2)(c2ccc(O)cc2)c2ccccc21", "categoryLabel": "false"}
{"molecule": "CCOC(=O)c1cc2c(n1Cc1cc(OC)c(OC)c(OC)c1)-c1oncc1CCC2", "categoryLabel": "true"}
{"molecule": "CCSc1nc(SCC)c2c(-c3ccc(OC)c(OC)c3)c(C#N)c(SCC)nc2n1", "categoryLabel": "false"}
{"molecule": "Cc1nn(-c2ccc([N+](=O)[O-])cc2)c2ncnc(N/N=C/c3ccccc3O)c12", "categoryLabel": "false"}
{"molecule": "Cc1ccc(-c2csc(NC(=O)N3CCN(c4cc5c(cc4F)c(=O)c(C(=O)O)cn5C4CC4)CC3)n2)cc1", "categoryLabel": "false"}
{"molecule": "CN(C)c1ccc(C(=NO)c2ccc(N(C)C)cc2)cc1", "categoryLabel": "false"}
{"molecule": "CC(=O)[CH-]C(=O)c1ccccc1.CC(=O)[CH-]C(=O)c1ccccc1.CC(=O)[CH-]C(=O)c1ccccc1.[In+3]", "categoryLabel": "false"}
{"molecule": "Nc1ccccc1C#C/C=C\\C#Cc1cccc(O)c1", "categoryLabel": "false"}
{"molecule": "O=[N+]([O-])c1ccc(N=Nc2ccc(O)c3ccccc23)cc1", "categoryLabel": "false"}
{"molecule": "O=C1c2ccc3c4c(ccc(c24)C(=O)N1CCCNCc1ccccc1Cl)C(=O)N(CCCNCc1ccccc1Cl)C3=O", "categoryLabel": "false"}
{"molecule": "COc1ccccc1CNCCCN1C(=O)c2ccc3c4c(ccc(c24)C1=O)C(=O)N(CCCN)C3=O", "categoryLabel": "false"}

====

# Test system: SF-268 CNS
# experimentNotes: NCI tumour cell line growth inhibition, 48 h

{"moleculeSmiles": "Nc1ccccc1C#C/C=C\\C#Cc1cccc(O)c1", "TGI": "44.5 µM"}
{"moleculeSmiles": "CN(C)C(=O)c1cnc2oc3ccc(O)cc3c2c1-c1ccccc1", "TGI": "> 25 µM"}
{"moleculeSmiles": "CCOC(=O)NN(C(=O)OCC)c1c(C)cc(C)cc1C", "TGI": "> 100 µM"}
{"moleculeSmiles": "Cc1ccc2c(/C=C/c3ccc(N(C)C)cc3)ccc(C(C)C)cc1-2", "TGI": "> 100 µM"}
{"moleculeSmiles": "CN(C)C(=O)c1ccc([N+](=O)[O-])cc1", "TGI": "> 100 µM"}
{"moleculeSmiles": "c1ccc([I+]c2ccccc2)cc1", "TGI": "> 100 µM"}

====

# Tested on: U251 CNS
Possible outcomes: Yes = active, No = inactive

{"compound": "Cc1ccc(C(=O)NC2CCC2)cc1-c1ccc(C(=O)NCC2CC2)cc1", "categoryLabel": "No"}
{"compound": "CC(C)CCNCC(O)Cn1c2ccccc2c2ccccc21 (stereo not given)", "categoryLabel": "No"}
{"compound": "CCOC(=O)C1CCCCN1C(=O)c1ccc(Nc2cnc3cc(C(F)(F)F)ccc3n2)cc1 (stereo not given)", "categoryLabel": "No"}
{"compound": "COc1cnc2c(c1)C(=O)c1c-2n(CCCNC2=NCCS2)c(=O)c2cc(Cl)ccc12", "categoryLabel": "Yes"}
{"compound": "N#Cc1nc2c(S(=O)(=O)c3ccc(Cl)cc3)c(N)n(CCCN3CCOCC3)c2nc1C#N", "categoryLabel": "No"}
{"compound": "Cc1cnc2[nH]c(-c3ccc4ccccc4c3)cc(=O)c2c1", "categoryLabel": "No"}
{"compound": "CC(=O)[O][Sn]([CH2]c1ccccc1)([CH2]c1ccccc1)[CH2]c1ccccc1", "categoryLabel": "No"}
{"compound": "CCOC(=O)c1cc2c(n1Cc1cc(OC)c(OC)c(OC)c1)-c1oncc1CCC2", "categoryLabel": "Yes"}
{"compound": "CCSc1nc(SCC)c2c(-c3ccc(OC)c(OC)c3)c(C#N)c(SCC)nc2n1", "categoryLabel": "No"}
{"compound": "COc1ccc(C(=O)/C=C/c2cccc(Nc3ccnc4cc(Cl)ccc34)c2)cc1", "categoryLabel": "No"}
